Value source: patent US11472815B2

Recorded EC50 for the following compounds
- target.or.test.system: TLR1/2 (Homo sapiens (Human), UniProt O60603+Q15399)
- Sequence (Q15399 25-786): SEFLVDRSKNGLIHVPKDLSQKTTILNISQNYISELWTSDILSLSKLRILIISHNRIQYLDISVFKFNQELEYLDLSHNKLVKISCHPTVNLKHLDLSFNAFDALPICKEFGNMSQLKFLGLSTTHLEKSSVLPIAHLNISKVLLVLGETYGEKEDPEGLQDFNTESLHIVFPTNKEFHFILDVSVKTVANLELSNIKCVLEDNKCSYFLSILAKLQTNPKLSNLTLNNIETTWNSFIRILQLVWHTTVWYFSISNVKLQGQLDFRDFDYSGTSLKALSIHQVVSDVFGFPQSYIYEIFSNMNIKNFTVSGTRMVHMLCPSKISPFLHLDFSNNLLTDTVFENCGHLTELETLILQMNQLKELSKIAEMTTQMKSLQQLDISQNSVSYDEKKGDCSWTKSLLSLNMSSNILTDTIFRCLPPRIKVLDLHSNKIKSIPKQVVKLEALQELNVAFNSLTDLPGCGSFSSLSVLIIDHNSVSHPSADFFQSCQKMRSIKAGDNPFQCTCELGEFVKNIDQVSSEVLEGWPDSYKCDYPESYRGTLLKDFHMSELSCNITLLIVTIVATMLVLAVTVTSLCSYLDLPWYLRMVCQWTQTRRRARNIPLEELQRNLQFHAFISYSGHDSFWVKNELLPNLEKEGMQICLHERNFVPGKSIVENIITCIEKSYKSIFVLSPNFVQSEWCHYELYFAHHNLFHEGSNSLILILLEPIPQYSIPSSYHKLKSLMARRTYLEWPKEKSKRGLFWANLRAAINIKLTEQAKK
- Sequence (O60603 19-784): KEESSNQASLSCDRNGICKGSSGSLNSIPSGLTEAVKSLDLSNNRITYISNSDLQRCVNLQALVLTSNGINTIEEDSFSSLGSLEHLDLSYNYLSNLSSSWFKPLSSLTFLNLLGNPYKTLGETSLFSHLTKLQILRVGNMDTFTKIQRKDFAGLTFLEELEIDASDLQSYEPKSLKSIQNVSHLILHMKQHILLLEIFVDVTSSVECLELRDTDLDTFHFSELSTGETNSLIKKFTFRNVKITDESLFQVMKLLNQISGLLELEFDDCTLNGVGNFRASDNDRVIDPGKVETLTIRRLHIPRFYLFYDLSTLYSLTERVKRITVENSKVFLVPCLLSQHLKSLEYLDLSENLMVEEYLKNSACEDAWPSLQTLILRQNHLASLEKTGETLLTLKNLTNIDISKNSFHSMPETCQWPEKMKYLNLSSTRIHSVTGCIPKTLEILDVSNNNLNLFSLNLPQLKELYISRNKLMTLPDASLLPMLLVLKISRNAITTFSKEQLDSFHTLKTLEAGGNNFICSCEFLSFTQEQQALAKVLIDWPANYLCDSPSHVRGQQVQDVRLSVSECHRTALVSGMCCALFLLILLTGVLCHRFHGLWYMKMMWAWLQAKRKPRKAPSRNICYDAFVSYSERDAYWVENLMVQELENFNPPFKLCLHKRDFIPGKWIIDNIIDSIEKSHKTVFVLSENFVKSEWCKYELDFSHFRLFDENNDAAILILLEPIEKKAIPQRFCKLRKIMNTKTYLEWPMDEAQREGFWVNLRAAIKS
- procedure.details: Detection of TLR1/2 activation activity (SEAP signal) using TLR1/2 HEK BLUE cells
- conditions.used: HEK BLUE TLR1/2 cells, 24 hours, SEAP read at 620 nm; highest concentration 100 μM; [‡] highest SEAP signal less than 50% of the activation value of compound 22
outcome.measure: EC50

molecule_smiles=CNc1c(Cl)cc([N+](=O)[O-])cc1-n1cnc(-c2ccc(C#N)cc2)c1 result="> 1000 nM"
molecule_smiles=CNc1ccc([N+](=O)[O-])cc1-n1cnc(-c2ccc(C(F)(F)F)cc2OCCOCCOCCI)c1 result="> 1000 nM"
molecule_smiles=CNc1ccc([N+](=O)[O-])cc1-n1cnc(-c2ccc(C(F)(F)F)cc2OCCOCCO)c1 result="> 1000 nM"
